These measurements were taken from patent US20240208992A1.

Target: human F508del-CFTR (Homo sapiens, UniProt P13569, DEL508-508)
Sequence (P13569 with tags, fused parts or gaps DEL508-508): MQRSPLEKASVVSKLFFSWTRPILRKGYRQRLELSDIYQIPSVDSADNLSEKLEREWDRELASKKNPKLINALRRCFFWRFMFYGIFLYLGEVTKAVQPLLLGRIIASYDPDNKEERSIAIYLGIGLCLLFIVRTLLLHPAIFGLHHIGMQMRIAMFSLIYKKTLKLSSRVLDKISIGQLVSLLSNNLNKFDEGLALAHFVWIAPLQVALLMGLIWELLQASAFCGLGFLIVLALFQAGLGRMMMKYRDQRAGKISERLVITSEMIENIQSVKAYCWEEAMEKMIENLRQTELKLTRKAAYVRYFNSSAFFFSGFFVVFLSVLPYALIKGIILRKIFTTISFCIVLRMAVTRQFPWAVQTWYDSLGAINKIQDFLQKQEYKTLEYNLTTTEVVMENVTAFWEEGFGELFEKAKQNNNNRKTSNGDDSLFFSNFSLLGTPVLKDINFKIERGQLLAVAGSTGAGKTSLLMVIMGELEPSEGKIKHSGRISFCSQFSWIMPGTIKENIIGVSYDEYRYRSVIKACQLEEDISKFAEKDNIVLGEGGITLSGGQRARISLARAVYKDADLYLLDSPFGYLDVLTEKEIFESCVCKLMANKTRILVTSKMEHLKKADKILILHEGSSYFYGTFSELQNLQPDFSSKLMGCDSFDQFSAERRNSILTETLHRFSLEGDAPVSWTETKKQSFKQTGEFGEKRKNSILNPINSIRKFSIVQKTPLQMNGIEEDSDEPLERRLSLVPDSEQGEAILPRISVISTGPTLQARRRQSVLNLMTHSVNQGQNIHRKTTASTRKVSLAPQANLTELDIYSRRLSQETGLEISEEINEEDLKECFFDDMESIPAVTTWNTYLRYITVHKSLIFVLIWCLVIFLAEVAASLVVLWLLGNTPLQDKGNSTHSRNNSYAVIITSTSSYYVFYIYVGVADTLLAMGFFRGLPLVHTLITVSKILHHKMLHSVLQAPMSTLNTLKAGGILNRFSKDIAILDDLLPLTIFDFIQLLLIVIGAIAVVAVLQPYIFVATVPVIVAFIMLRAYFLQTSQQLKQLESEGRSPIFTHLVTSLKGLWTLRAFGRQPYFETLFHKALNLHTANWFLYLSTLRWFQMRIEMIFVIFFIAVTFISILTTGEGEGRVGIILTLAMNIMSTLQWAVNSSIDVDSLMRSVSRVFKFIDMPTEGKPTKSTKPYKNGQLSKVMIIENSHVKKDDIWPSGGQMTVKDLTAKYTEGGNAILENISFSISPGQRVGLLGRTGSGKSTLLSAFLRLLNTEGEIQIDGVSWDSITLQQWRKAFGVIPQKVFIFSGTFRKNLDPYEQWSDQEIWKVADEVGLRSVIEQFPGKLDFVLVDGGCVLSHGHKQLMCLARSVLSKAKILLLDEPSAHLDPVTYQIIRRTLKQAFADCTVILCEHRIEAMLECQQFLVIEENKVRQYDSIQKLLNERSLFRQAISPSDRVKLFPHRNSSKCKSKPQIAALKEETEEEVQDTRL
Experiment: F508del-CFTR cell surface expression (corrector activity), DiscoveRx ß-galactosidase complementation chemiluminescence assay in recombinant U2OS cell line
Details: U2OS, in relation to Emax of corrector lumacaftor (=100%); arithmetic mean values
property name: Emax
Express your answer as a number followed by its unit.

[
  {
    "compound structure string": "Cc1cc(CCNC(=O)[C@@H]2CC(=O)N(C)[C@@H](CC(C)C)C(=O)N(C)[C@H](COCc3ccccc3)C(=O)N[C@H](Cc3ccccc3)COc3cnc4ccccc4c3C(=O)N2)on1",
    "Emax": "298%"
  },
  {
    "compound structure string": "COc1cccc(CCNC(=O)[C@@H]2CC(=O)N(C)[C@@H](CC(C)C)C(=O)N(C)C3(CC3)C(=O)N[C@H](Cc3ccccc3)COc3ccc(OC)nc3C(=O)N2)c1",
    "Emax": "270%"
  },
  {
    "compound structure string": "Cc1cc(CCNC(=O)[C@@H]2CC(=O)N(C)[C@@H](CC(C)C)C(=O)N(CC[C@@H]3CCCCO3)CC(=O)N[C@H](Cc3ccccc3)COc3cnc4ccccc4c3C(=O)N2)on1",
    "Emax": "248%"
  },
  {
    "compound structure string": "COc1cccc(CCNC(=O)[C@@H]2CC(=O)N(C)[C@@H](CC(C)C)C(=O)N3CCN(S(=O)(=O)c4cc(OC)ccc4F)C[C@@H]3C(=O)N[C@H](Cc3ccccc3)COc3ccc4ccccc4c3C(=O)N2)c1",
    "Emax": "280%"
  }
]

Turning now to a further record.
So what does the record say about Emax for Cc1cc(CCNC(=O)[C@@H]2CC(=O)N(C)[C@@H](CC(C)C)C(=O)N3CCCC[C@@H]3C(=O)N[C@@H](Cc3ccccc3)COc3cnc4ccccc4c3C(=O)N2)on1 ?
147%

---

Target: human F508del-CFTR (Homo sapiens, UniProt P13569, DEL508-508)
Assay: F508del-CFTR cell surface expression (corrector activity), DiscoveRx ß-galactosidase complementation chemiluminescence assay in recombinant U2OS cell line
Conditions: EC50, F508del-CFTR cell surface expression, U2OS cell line, 16h compound incubation; geomean values
Kindly supply the reported EC50 values for the records listed here.
Answers are plain numbers, in nM.

Worked examples, 4 compounds total:
[
  {
    "compound": "COc1cccc2c1C(=O)N[C@H](C(=O)NCCc1ccncn1)CC(=O)N(C)[C@@H](CC(C)C)C(=O)N(CCC1CCCCC1)CC(=O)N[C@H](Cc1ccccc1)CO2",
    "test target": "human F508del-CFTR (Homo sapiens, UniProt P13569, DEL508-508)",
    "recorded result": 743
  },
  {
    "compound": "COc1cccc2c1C(=O)N[C@H](C(=O)NCCc1ccc3c(c1)OCO3)CC(=O)N(C)[C@@H](CC(C)C)C(=O)N(CCC1CCCCC1)CC(=O)N[C@H](Cc1ccccc1)CO2",
    "test target": "human F508del-CFTR (Homo sapiens, UniProt P13569, DEL508-508)",
    "recorded result": 195
  },
  {
    "compound": "CC(C)C[C@H]1C(=O)N2CCCC[C@@H]2C(=O)N[C@H](Cc2ccccc2)COc2ccc3ncn(C)c3c2C(=O)N[C@H](C(=O)NCCc2cccc(OC(F)F)c2)CC(=O)N1C (racemic)",
    "test target": "human F508del-CFTR (Homo sapiens, UniProt P13569, DEL508-508)",
    "recorded result": 299
  },
  {
    "compound": "COCCCc1cnn(CCNC(=O)[C@@H]2CC(=O)N(C)[C@@H](CC(C)C)C(=O)N(C)C3(CC3)C(=O)N[C@H](Cc3ccccc3)COc3cnc4ccc(F)cc4c3C(=O)N2)c1",
    "test target": "human F508del-CFTR (Homo sapiens, UniProt P13569, DEL508-508)",
    "recorded result": 954
  }
]

Turning now to a further record.
So what does the record say about EC50 for COc1cccc(CCNC(=O)[C@@H]2CC(=O)N(C)[C@@H](CC(C)C)C(=O)N3CCCC[C@@H]3C(=O)N[C@H](Cc3ccccc3)COc3cnc4ccccc4c3C(=O)N2)c1OC ?
233

---

Target: human F508del-CFTR (Homo sapiens, UniProt P13569, DEL508-508)
Test: F508del-CFTR cell surface expression (corrector activity), DiscoveRx ß-galactosidase complementation chemiluminescence assay in recombinant U2OS cell line
Conditions: EC50, F508del-CFTR cell surface expression, U2OS cell line, 16h compound incubation; geomean values
Kindly supply the reported EC50 values for the records listed here.

[
  {
    "compound structure string": "CC(C)C[C@H]1C(=O)N(C)C2(CC2)C(=O)N[C@H](Cc2ccccc2)COc2cnc3ccccc3c2C(=O)N[C@H](C(=O)NCCc2ccccc2)CC(=O)N1C",
    "EC50": "581 nM"
  },
  {
    "compound structure string": "COc1cccc(CCNC(=O)[C@@H]2CC(=O)N(C)[C@@H](CC(C)C)C(=O)N3CCOC[C@@H]3C(=O)N[C@H](Cc3ccccc3)COc3cnc4ccccc4c3C(=O)N2)c1OC",
    "EC50": "647 nM"
  },
  {
    "compound structure string": "CC(C)C[C@H]1C(=O)N2CCCC[C@@H]2C(=O)N[C@H](Cc2ccccc2)COc2cnc3ccccc3c2C(=O)N[C@H](C(=O)NCCc2nc(-c3ccccc3OC(F)(F)F)no2)CC(=O)N1C",
    "EC50": "162 nM"
  },
  {
    "compound structure string": "COc1cc2c(cc1OC)C(=O)N[C@H](C(=O)NCCc1ccc3ccoc3c1)CC(=O)N(C)[C@@H](CC(C)C)C(=O)N(C)CC(=O)N[C@H](Cc1ccccc1)CO2",
    "EC50": "673 nM"
  }
]

Turning now to a further record.
So what does the record say about EC50 for COc1ccc(CCNC(=O)[C@@H]2CC(=O)N(C)[C@@H](CC(C)C)C(=O)N3CCOC[C@@H]3C(=O)N[C@H](Cc3ccccc3)COc3cnc4ccccc4c3C(=O)N2)c(F)c1 ?
772 nM

---

Target: human F508del-CFTR (Homo sapiens, UniProt P13569, DEL508-508)
Assay: F508del-CFTR cell surface expression (corrector activity), DiscoveRx ß-galactosidase complementation chemiluminescence assay in recombinant U2OS cell line
Conditions: U2OS, in relation to the Emax of the corrector lumacaftor (=100%); U2OS cell line, 16h compound incubation; arithmetic mean values
property name: Emax (%)
One number for each entry, in %.

[
  {
    "compound structure string": "COc1cccc2c1C(=O)N[C@H](C(=O)NCCc1ccc3c(c1)OCO3)CC(=O)N(C)[C@@H](CC(C)C)C(=O)N(C[C@H]1CCCCO1)CC(=O)N[C@H](Cc1ccccc1)CO2",
    "endpoint unit": "%",
    "Emax": 123
  },
  {
    "compound structure string": "COc1cccc(CCNC(=O)[C@@H]2CC(=O)N(C)[C@@H](CC(C)C)C(=O)N(C[C@H]3CCCCO3)CC(=O)N[C@H](Cc3ccccc3)COc3cccc(OC)c3C(=O)N2)c1",
    "endpoint unit": "%",
    "Emax": 127
  }
]

Turning now to a further record.
Request: Emax, test system human F508del-CFTR (Homo sapiens, UniProt P13569, DEL508-508), entry CC(C)C[C@H]1C(=O)N(CC[C@@H]2CCCCO2)CC(=O)N[C@H](Cc2ccccc2)COc2ccc3ccccc3c2C(=O)N[C@H](C(=O)NCCc2ccc3c(c2)OCO3)CC(=O)N1C
247

---

Kindly supply the reported Emax values for the records listed here.
Target: human F508del-CFTR (Homo sapiens, UniProt P13569, DEL508-508)
Experiment: F508del-CFTR cell surface expression (corrector activity), DiscoveRx ß-galactosidase complementation chemiluminescence assay in recombinant U2OS cell line;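 note: U2OS cells co-expressing ProLink-tagged F508del-CFTR and a membrane-anchored enzyme acceptor, where more surface CFTR restores β-galactosidase activity measured by chemiluminescence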
Details: U2OS, in relation to the Emax of the corrector lumacaftor (=100%); U2OS cells, 16h compound incubation; arithmetic mean
Numbers only, in %.

[
  {
    "compound structure string": "COCCn1cc(CCNC(=O)[C@@H]2CC(=O)N(C)[C@@H](CC(C)C)C(=O)N(C)C3(CC3)C(=O)N[C@H](Cc3ccccc3)COc3cnc4ccc(F)cc4c3C(=O)N2)cn1",
    "test target": "human F508del-CFTR (Homo sapiens, UniProt P13569, DEL508-508)",
    "endpoint unit": "%",
    "Emax": 310
  }
]

For each entry beneath this line, provide reported Emax.
1. COc1noc(CCNC(=O)[C@@H]2CC(=O)N(C)[C@@H](CC(C)C)C(=O)N(C)[C@H](CC(F)(F)F)C(=O)N[C@H](Cc3ccccc3)COc3ccc4ncc(F)cc4c3C(=O)N2)n1
2. COc1nc(C)cc2c1C(=O)N[C@H](C(=O)NCCc1cc(C)no1)CC(=O)N(C)[C@@H](CC(C)C)C(=O)N(C)[C@H](CCc1ccccc1)C(=O)N[C@H](Cc1ccccc1)CO2

1: 459; 2: 332
